Entries with reported IC50 on acyl-CoA: cholesterol acyltransferase (ACAT) (Rattus norvegicus, UniProt Q7TQM4)
Sequence (Q7TQM4 whole entry): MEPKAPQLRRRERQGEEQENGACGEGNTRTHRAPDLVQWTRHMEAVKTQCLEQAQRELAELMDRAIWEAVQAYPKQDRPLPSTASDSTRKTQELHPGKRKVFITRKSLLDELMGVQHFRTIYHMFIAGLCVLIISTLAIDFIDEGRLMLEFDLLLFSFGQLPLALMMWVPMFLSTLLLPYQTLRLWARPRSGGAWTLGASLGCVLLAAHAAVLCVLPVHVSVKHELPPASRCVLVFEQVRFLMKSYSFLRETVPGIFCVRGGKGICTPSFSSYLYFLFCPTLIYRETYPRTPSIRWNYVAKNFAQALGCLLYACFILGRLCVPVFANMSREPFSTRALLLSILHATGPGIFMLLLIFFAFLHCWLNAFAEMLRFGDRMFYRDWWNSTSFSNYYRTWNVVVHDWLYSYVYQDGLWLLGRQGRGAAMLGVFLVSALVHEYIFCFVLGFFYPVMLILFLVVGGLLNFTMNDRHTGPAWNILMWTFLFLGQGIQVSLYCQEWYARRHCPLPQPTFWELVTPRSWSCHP
Entry rule: numbers only, all in nM.

Use these answered entries as a reference point.
CCCN(CCOC(=O)CSc1nc(-c2ccccc2)c(-c2ccccc2)[nH]1)C(=O)Nc1ccc(F)cc1F ... 4100
COc1ccc(-c2nc(SCCCCCN(CCOCCO)C(=O)NC(C)C)[nH]c2-c2ccc(OC)cc2)cc1 ... 480
O=C(Nc1ccc(F)cc1F)N(CCCCCSc1nc(-c2ccccc2)c(-c2ccccc2)[nH]1)CCN1CCOCC1 ... 66

[ask] What measured IC50 is associated with CCCCN(C)CCN(CCOCCSc1nc(-c2ccc(OC)cc2)c(-c2ccc(OC)cc2)[nH]1)C(=O)Nc1ccc(F)cc1F on acyl-CoA: cholesterol acyltransferase (ACAT) (Rattus norvegicus, UniProt Q7TQM4)?
[reply] 1500
